test system: MDA-MB-435; experiment: NCI tumour cell line growth inhibition, 48 h
Active and inactive are the calls of the source. Rule as the data show it: active = GI50 up to about 1.1 µM and inactive = higher.
Classes used: active, inactive

molecule: O=C1N[C@H]2c3c(Cl)sc(Cl)c3/C(=N/O)[C@H]2O1
qualitative label: inactive
--
molecule: COc1ccc2c(c1)c(=Cc1ccc(N(C)C)cc1)c1cc(-c3ccccc3)[n+](C)n12
qualitative label: active
--
molecule: O=C(CC1(O)C(=O)Nc2c(Cl)cc(Cl)cc21)c1ccc(Br)cc1Br (centres undefined)
qualitative label: inactive
--
molecule: CC(=O)OCCn1cnc2c(NCC=C(C)C)ncnc21
qualitative label: inactive
--
molecule: CC(=O)OCC1OC(NC(=S)Nn2c(=O)[nH]c3ccccc3c2=O)C(OC(C)=O)C(OC(C)=O)C1OC(C)=O (centres undefined)
qualitative label: inactive
--
molecule: C/C=C/[C@H]1O[C@@](OC)([C@@H](C)[C@H](O)[C@H](C)[C@H]2OC(=O)/C(OC)=C/C(C)=C/[C@@H](C)[C@@H](O)[C@@H](C)[C@@H](O)[C@H](C)C/C(C)=C/C=C/[C@@H]2OC)CC(OC2CC(O)C(OC(N)=O)C(C)O2)[C@@H]1C (some centres undefined)
qualitative label: active
--
molecule: BrC(Br)=C1C(=C(Br)Br)C(Br)C1Br (centres undefined)
qualitative label: active
--
molecule: CC(C)(C)c1ccc(O)c(CN(Cc2c(O)ccc3ccccc23)C2CCCCC2)c1
qualitative label: inactive
--
molecule: C=C(CBr)CCCOCc1ccccc1
qualitative label: inactive
